- Study target: KIX domain of CBP (UniProt P45481 586-665)
- Sequence (P45481 586-665): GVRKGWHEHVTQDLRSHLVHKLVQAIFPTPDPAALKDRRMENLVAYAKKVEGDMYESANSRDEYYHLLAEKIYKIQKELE
- Experimental details: fluorescence polarisation; equilibrium fluorescence anisotropy; KIX titrated into N-terminally FITC-labelled pKID peptide; biophysical buffer and conditions as in the accompanying article (ref. 42); KdEqub
- Experimental context: both partners purified
pKd: −log10 of the molar value. Non-standard residues stand in square brackets, D forms with d. No end group written: not given here. *: point of attachment. FITC = O=C1OC2(c3ccc(O)cc3Oc3cc(O)ccc32)c2ccc(NC(=S)*)cc21; pS = N[C@@H](COP(=O)(O)O)C(=O)O
Readout label: pKd

Observe how each entry below is paired with its result.
[[record]]
binder = "{FITC}-DSVGDSQKRREILSRRP[pS]YRKILNDLSSDAP (peptide, UniProt P15337-1 116-146, looked up, the peptide has Gly in place of the natural Thr119; also called A119G; source: synthetic peptide, bought: Biomatik) [FITC-pKID T119G]"
value_measured = 7.10

[[record]]
binder = "{FITC}-DSVTDSQKRRAILSRRP[pS]YRKILNDLSSDAP (peptide, UniProt P15337-1 116-146, looked up, source: synthetic peptide, bought: Biomatik) [FITC-pKID E126A]"
value_measured = 6.77


I: {FITC}-DSVTDSQKRREILSRRP[pS]YRAILNDLSSDAP (peptide, UniProt P15337-1 116-146, looked up, source: synthetic peptide, bought: Biomatik) [FITC-pKID K136A]
II: {FITC}-DSVTDSQKRREILSRRP[pS]YGKILNDLSSDAP (peptide, UniProt P15337-1 116-146, looked up, also called A135G; source: synthetic peptide, bought: Biomatik) [FITC-pKID R135G]
III: {FITC}-DSVTDSQKRREILSRRG[pS]YRKILNDLSSDAP (peptide, UniProt P15337-1 116-146, looked up, also called A132G; source: synthetic peptide, bought: Biomatik) [FITC-pKID P132G]
IV: {FITC}-DSVTDSQKRRGILSRRP[pS]YRKILNDLSSDAP (peptide, UniProt P15337-1 116-146, looked up, also called A126G; source: synthetic peptide, bought: Biomatik) [FITC-pKID E126G]
V: {FITC}-DSVTDSQKRREILSRRP[pS]YRGILNDLSSDAP (peptide, UniProt P15337-1 116-146, looked up, also called A136G; source: synthetic peptide, bought: Biomatik) [FITC-pKID K136G]
Could you please sort these 5 entries by pKd from high to low? Would you mind listing the labels in the order asked for?
I, IV, III, II, V

I: {FITC}-DSVTDSQKRREILSRRP[pS]YRKILNDLSADAP (peptide, UniProt P15337-1 116-146, looked up, source: synthetic peptide, bought: Biomatik) [FITC-pKID S143A]
II: {FITC}-DSVADSQKRREILSRRP[pS]YRKILNDLSSDAP (peptide, UniProt P15337-1 116-146, looked up, source: synthetic peptide, bought: Biomatik) [FITC-pKID T119A]
Which value of pKd is smaller, the one for I or the one for II ? Could you answer with the label of the item you picked?
II
(II: 6.82, I: 7.15)

Source: paper PMC5770965
